# System: MDA-MB-435
# method: MTT cytotoxicity assay (Example 2)
# Assay type: cell-based
# condition-details: Homo sapiens, MDA-MB-435, 72 h
pIC50: −log10 of the molar value.
property-measured: pIC50

CCOC(=O)Cc1cc(=O)nc(Nc2nc3ccccc3s2)[nH]1 ... 5.02
Cc1cccc(NCc2ccc(O)c3ncccc23)c1 ... 5.18
Cc1cccc(NCc2ccc(O)c3ncccc23)n1 ... 5.64
Cc1cccnc1NCc1ccc(O)c2ncccc12 ... 5.51
Oc1ccc(CN2CCN(c3ccccn3)CC2)c2cccnc12 ... 5.57
COc1cccc(NCc2ccc(O)c3ncccc23)c1 ... 5.30
Oc1ccc(CN2CCN(Cc3ccccc3)CC2)c2cccnc12 ... 5.27
Oc1ccc(CN2CCCCC2)c2cccnc12 ... 5.05
CCOc1ccc(NCc2ccc(O)c3ncccc23)cc1 ... 5.31
CCOC(=O)N1CCN(Cc2ccc(O)c3ncccc23)CC1 ... 5.28

###

# Tested on: HCT116 p53+/+
# method: MTT cytotoxicity assay (Example 2)
# Assay type: cell-based
# condition-details: MTT, 72 h; read-out: IC50 Hct116 p53+/+
property-measured: IC50

Cc1cc(C)nc(NC(=N)Nc2cc(Oc3ccccc3)ccc2Cl)n1 ... 1 µM
COC(=O)/C=C1/N=C(Nc2nc3ccccc3s2)NC1=O ... 7.2 µM
Cc1[nH]c(Nc2nc3ccccc3s2)nc(=O)c1Cc1ccccc1 ... > 10 µM

###

# Tested on: HEY
# method: MTT cytotoxicity assay (Example 1)
# Format: cell-based, human
# condition-details: Homo sapiens, 72 h
property-measured: IC50 (µM)

Cc1ccccc1Nc1nc2nonc2nc1N/N=C/c1cc(Br)ccc1O ... 5
O=C(O)c1cc(-c2ccc(/C=N/Nc3nc4nonc4nc3Nc3ccccc3F)o2)ccc1Cl ... 10
Cc1cccc(Nc2nc3nonc3nc2NN=Cc2ccc(-c3ccccc3Cl)o2)c1C ... 3
O=C(Nn1c(Cc2ccccc2)nc2ccccc2c1=O)c1c(O)c2cccc3c2n(c1=O)CCC3 ... 19
COC(=O)/C=C1/N=C(Nc2nc3cc(C)ccc3o2)NC1=O ... 3.5
CCCCn1c(=O)c(C(=O)Nc2nc(CC(=O)OCC)cs2)c(O)c2ccccc21 ... 15
Cc1cccc(Nc2nc3nonc3nc2NN=Cc2ccc(-c3cccc(C(=O)O)c3)o2)c1 ... 8

###

The reader will find reported pIC50 values listed item by item below.
# System: MDA-MB-435
# method: MTT cytotoxicity assay (Example 2)
# Type: cell-based
# condition-details: Homo sapiens, MDA-MB-435, 72 h
# Description: Human breast cancer cell lines MDA-MB-435 and SkBr-3 were purchased from the American Type Culture Collection (Manassas, Va.). […] Cytotoxicity was assessed by a 3-(4,5-dimethylthiazol-2-yl)-2,5-diphenyltetrazolium bromide (MTT) assay as previously described.^23 Cells were seeded in 96-well plates and allowed to attach overnight. […] After removal of the medium, DMSO was added and the absorbance was read at 570 nm. […]
pIC50: −log10 of the molar value.
property-measured: pIC50

CCC(=O)NC(c1ccc(OC)cc1)c1cc([N+](=O)[O-])c2cccnc2c1O (stereo not drawn) ... 5.12
Oc1ccc(CNc2ccc(C(F)(F)F)cc2)c2cccnc12 ... 5.28
CCOC(=O)C1CCN(Cc2ccc(O)c3ncccc23)CC1 ... 5.62
CN1CCN(Cc2ccc(O)c3ncccc23)CC1 ... 5.41
CC(C)(C)c1cc(=O)[nH]c(Nc2nc3ccccc3s2)n1 ... 5.12
CCOC(=O)C1CCCN(Cc2ccc(O)c3ncccc23)C1 (stereo not drawn) ... 5.38
Cc1cc(C)nc(NC(=N)Nc2cc(Oc3ccccc3)ccc2Cl)n1 ... 5.10
Oc1ccc(Cc2ccc(O)c3ncccc23)c2cccnc12 ... 5.55
COC(=O)/C=C1/N=C(Nc2nc3ccccc3s2)NC1=O ... 5.15
CCC(=O)NC(c1cccs1)c1cc([N+](=O)[O-])c2cccnc2c1O (stereo not drawn) ... 5.25
CCN1CCN(Cc2ccc(O)c3ncccc23)CC1 ... 5.14
